Test system: K4 kissing-loop RNA reporter
Experimental details: apparent KD of K4 kissing-loop reporter; higher = weaker reporter binding
Experimental setup: Eterna round: R107; input ligand: tryptophan 2.4 mM
Measure: apparent KD of K4 kissing-loop reporter (nM)
# unit: nM | format: bare number

Here are 2 sequences together with their reported answers.
UUUUUGGAGAAUUAUAGUGAUGUUAUGAAGGAGGAUAUCUGGAGAUGGAGAAGGCCUAGUGGCUCAGGGAUGGAGGGUGGGUGGG [ExFMNA.Y] | 301
UUUUAUUAAUACUUCUAGUGAUGUUAGAUACGAGGACCGGUACGGCCGCCACUCGCUUAUUGGUUUAUAUAUUUUAUAUUCUUUA [JR_SSTryptoA_Sub014] | 281

Identify measured apparent KD of K4 kissing-loop reporter corresponding to CGGACGGUAUCGGCCGCCACUCUGAAGACAGUGAUGUUGUCCGUGCAGUAUUUAGGAAAGCCGCGGAGGACCGGGAUGCGUCACU [theeternabot_sameState_KL_Trp_B_48]
340

Identify measured apparent KD of K4 kissing-loop reporter corresponding to GUGCGGCUAGUGAUGUUGGUUGUGUGGGAAGGAGCGCAGAUUCAUGCAGGUAGGUCGCCCACACGUCUGAAAGGAUGAUAAUUCA [#12 K4 Arginine A Same State]
350

* * *

Tested on: K4 kissing-loop RNA reporter
Experimental details: apparent KD of K4 kissing-loop reporter; higher = weaker reporter binding
Experimental setup: Eterna round: R107; input ligand: none
Listed sequences paired with reported apparent KD of K4 kissing-loop reporter
Returns: string containing the number followed by the unit.

Here are 4 sequences together with their reported answers.
AAAUUUAUUAUAUUUGAAUAAAUAUGUGAUACCAGACAUUUAUAAGUCCCUUGGCAGCACAAUGCAGUGAUGUUGCUUAUAAUAA [JR_SSTheophyA_Sub018] | 93 nM
GUCAUCAGAUCGCAAGAUCUGAUAGCCGAUACCAGCGCGAAGGUGCGCCCUUGGCAGCGGCACCGAGUGAUGUUCGGUCAGACGG [#2 Same State - Theophylline A Attempt #4 (HarryS)] | 776 nM
GCCAGAUAGACGGCCGCCACUUAUAAGUUUCAGUGAUGUUGGAACGGCAAAUGCCGAACACAAUAGAGGACCGGGUCAACUGGCG [Same State Tryptophan B GF 1] | 835 nM
UGUAAGCGCGUAGAUACCAGCAAACGAGUGAUGUUCAAAAGAUUAAGGAAAAGAAAGUAAUGCCCUUGGCAGCUAAUCAUAAGCG [whbob_Ex_Theo_B_sa91] | 449 nM

Identify measured apparent KD of K4 kissing-loop reporter corresponding to AUUAAUAACUGAGGAUAUCGUUUUACUGUAGUGAUGUUACAGAAAGUUCAAAUUAUAAUUUCUAUUCGAGAAGGCAGAAUAAUUA [JR_SSFMNB_Sub026]
53.5 nM

Identify measured apparent KD of K4 kissing-loop reporter corresponding to AGUAGUUGGACGGCCGCCACUAGAACGGCUUUGCCAAAGGCAGAGCACUAGAGUGAUGUUCUAGCUAGGACCGGGUCCAACUACA [Omei KL Tryp B SS A v3]
191 nM

* * *

System: MS2 coat protein
Experimental details: apparent KD of MS2 coat protein; designed switch direction (-1 OFF switch, 1 ON switch): -1; higher = weaker reporter binding
Experimental setup: Eterna round: R95; input ligand: microRNA oligo, concentration not stated
I would appreciate it if you labelled entries class 1 when apparent KD of MS2 coat protein is 80 nM or higher, otherwise class 0.

AUAAAACGAGGAUAUGCUGGGCUUCUGUGAUGCAUAUGCUCACAUGAGGAUCACCCAUGUAGAAGGUGUAAAAU [Laaceve] (puzzle: Exclusion 2) | class 1

Threshold query (apparent KD of MS2 coat protein >= 80 nM) on ACAAGCUUUUUGUUCGUCUUAUACACUCCUAAUAAGACAACAUGAGGAUCACCCAUGUAACAAAUAAGAACUCAUGU [Sesor Array 5 - Jieux - Sensor v3, turn-off variant 2] (puzzle: Sensor v3, turn-off variant 2)
class 1

Threshold query (apparent KD of MS2 coat protein >= 80 nM) on GAGAAGGUAGGAUAUACGAAUAAAUAGGGUAGUAAUAAUACACAUGAGGAUCACCCAUGUAGAAGGACCAAUAG [Mat - Exclusion 2 - Mod of my Tesla design - D40] (puzzle: Exclusion 2)
class 0

Threshold query (apparent KD of MS2 coat protein >= 80 nM) on AAUAACAGAGGAUAUACUGUUUUAUGUGUUUGUUGUUUUAAACAUGAGGAUCACCCAUGUAGAAGGCUGAAUGA [JMF 60] (puzzle: Exclusion 2)
class 0

* * *

Test system: K4 kissing-loop RNA reporter
Experimental details: apparent KD of K4 kissing-loop reporter; higher = weaker reporter binding
Experimental setup: Eterna round: R107; input ligand: FMN 200 uM
Measure: apparent KD of K4 kissing-loop reporter

Here are 5 sequences together with their reported answers.
AAGUGAUGUUGUAGUGAUGUUGUGAUGUUGCAGGAUAUAUAGUGAUGUAGAAGGGUAAGUACUGAUGUUGUUUGUGAGUGAUGUU [zrrszrmullin] | 0.0992 µM
AGAGUUAUGCGAGGAUAUGCGGUUAGUACUCAAAGAGUACUAACGCAGAGUGAUGUUCUGUGAAACGCAGAAGGUGCAUAACUCA [Omei KL FMN B SS B v3] | 0.153 µM
GGAUAGGACACAGGAUAUGGGCUAGGCAAGAAUAACUUGUCUAGCAAAUCCAUGAGGAGUGAUGUUCCAGAAGGGUGUCCUAUCG [FmnBX 1 C11+G75] | 0.431 µM
UGUGAACAAAAGUAGAGUGGACCACUAUAGCGAGGACCGGUACGGCCGCCACUCGUAUAUAAAUUCAGUGAUGUUGAAAAGAGCU [Exclusion Tryptophan A GF1] | 0.175 µM
GCCGUAGAUGGAAGGAGCGUGGUGGACUCGUGAAGUGAUGUUUCAAGUCGAUAUGCCCAACCACAGGUAGGUCGCCAUCUACGGC | 0.206 µM

Identify measured apparent KD of K4 kissing-loop reporter corresponding to ACAGCGAGCAUUAACGCGCUCGCAGGUUGCAAGGAUAUAUUUCGUCAUAGAAGGUGCUAGACCAUAAGUGAUGUUUGUGGAUAUA [theeternabot_sameState_KL_FMN_A_16]
0.576 µM

* * *

Tested on: K4 kissing-loop RNA reporter;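 also: bound reporter read as fluorescence of individual clusters on recovered sequencing chips by microscopy, with normalized cluster intensities fitted with a binding model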
Experimental details: apparent KD of K4 kissing-loop reporter; higher = weaker reporter binding
Experimental setup: Eterna round: R107; input ligand: none
Measure: apparent KD of K4 kissing-loop reporter (nM)
# unit: nM | format: bare number

Here are 3 sequences together with their reported answers.
UGGUGCCAUUGGCGGGUAGAUAGUGGUGGCAAGGAUAUGUGAGCGAACAGAAGGUGCAUCAAGUUCAGUGAUGUUGGGCUCGAUU [theeternabot_sameState_KL_FMN_A_20] | 275
UCGGCGUACGGGCGGGUAGUGAUGUUGCUCCGAGGACCGGUACGGCCGCCACUCGAGGUACCAGUUCAUAGAACCUGGCACAUCA [theeternabot_exclusion_KL_Trp_A_23] | 541
GGAGUUACCUGGGAUACCAGUCGGAGUCCUAGAGCUCGGAGUGAUGUUCUGGGAUGUUUCGGCCCUUGGCAGCUCUGGGACUCCC [#2 Exclusion - Theophylline B Attempt #11 (HarryS)] | 949

Identify measured apparent KD of K4 kissing-loop reporter corresponding to "GAGGCCAGACGGAGUGAUGUUUCGUAUGAUACCAGCAGCGAAAGCUGCCCUUGGCAGCAUGCCACGGCCUCGGCGGGAAACCGCC"
397

Identify measured apparent KD of K4 kissing-loop reporter corresponding to UGUGGAGAAUAUGAUACCAGCAGUGAGAGAGAGGAAGUAUAGUGAUGUUAUAUGAGAGAAUGCCCUUGGCAGCAUAUGUAGUAGG [SSTheophylB.G]
207

Identify measured apparent KD of K4 kissing-loop reporter corresponding to GUACGGCGGGCGGCCGCCACUGGUAUACGAGUGAUGUUCGGAUAUACGUGAUGUAUGGUAAUUAACAGGACCGGGUCAGGGCCGG [whbob_SS_Tryp_B_t23]
229

* * *

Listed sequences paired with reported apparent KD of MS2 coat protein
System: MS2 coat protein
Experimental details: apparent KD of MS2 coat protein; higher = weaker reporter binding
Experimental setup: Eterna round: R107; input ligand: tryptophan 2.4 mM
# unit: nM | format: bare number

Here are 8 sequences together with their reported answers.
GCCUAGCAUCGAAGGAGCGCUGGUGAAACUGACUAAUAUACAUGAGGAUCACCCAUGUGCUAGCAGGUAGGUCGCGAUGCUAGGC [SSAB NP+V+V2 #11] | 21.1
GUAGCUAUCGCGGCCGCCACUAAACCGGAAACGGAACAGUAGGAUCACCAUUGUGGCGAAAGCCAUAGGACCGGGCGAUAGCUAC [TryBS - Double Magnet system 2] | 80
ACGUAAAGCAGAAGGAGCGUCUUCAAUUUACAUGAGGAUCACCCAUGUUUUGUGAUCAUAUGACAGGUAGGUCGCUGAAGUACGA [JR_SSArginiB_Sub002] | 123
UGAAAGUAGGGAAGGAGCGCUACAACAUGAGGAUCACCCAUGUUAUGAGGAUCACCCGUGUGGCAGGUAGGUCGCCCAAAACAUG [#13 Same State - Arginine B] | 31.9
GGCAGUCAUAGGAGGGCAAAUAUACUCGAAGGAGCGUCAUAGUAGGCAGGUAGGUCGCGAGACAUGAGGAUCACCCAUGUAGAGA [wwzmullin] | 90.5
ACAUGAGGAUCACCCAUGUCAAGGCACGAUACCAGCUGAUCCGGUGGCCCUUGGCAGCGUCACGUUUGGUCCCGCGGAUGACACG [p'pmullin] | 106
UAUAUAUAGGGAAGGAGCGGGAACAUGAGGAUCACCCAUGUACAUGAGGAUCACCCAUGUACCCAGGUAGGUCGCCCAUAUAUAU [Exclusion - Arginine B] | 241
AGGACGGUCGGAAGGAGCGGUACAUGAGGAUCACCCAUGUACCUCUGGGCAUCCGUAGUGUGCCAGGUAGGUCGCCGAUUGCGGG [Lareerra] | 11.8

Identify measured apparent KD of MS2 coat protein corresponding to UAUGCACAUGAGGAUCACCCAUGUAUGGAAGGAGCGGUGAAUAAACCAGGUAGGUCGCCAUGGUGAGGAUCAUCUAUGUAAUCGU [Exclusion - Arginine A (Freestyle 6)]
87.8

Identify measured apparent KD of MS2 coat protein corresponding to GCUAGGUCUACGGCCGCCACUAGACGUGGGUAAGACAUGAGGAUCACCCAUGUACUACGGGCGAAUAGGACCGGGUAGACCUAGC [SSTB NP+V+V2 #14 Same Structure]
39.1

Identify measured apparent KD of MS2 coat protein corresponding to GACCUUAUCUGAAGGAGCGAGGUAAAUAGGGAUGAGCAUACAUGAGGAUCACCCAUGUGGCCUCAGGUAGGUCGCAGAUGAGAUU [Exclusion Arginine B GF27]
105

Identify measured apparent KD of MS2 coat protein corresponding to AUCGUACCUGAAGAUACCAGCAUGUGAUCAUAACAUGAGGAUCACCCAUGUAAUCAGUGAUGCCCUUGGCAGCUUGAUCGGUACA [Same State - Theophylline B (Freestyle 12)]
30.2

Identify measured apparent KD of MS2 coat protein corresponding to GCACCAGGUACGGAUACCAGCUGCCACAGUUACAUGAGGAUCACCCAUGUGAAAACGUGUAGCCCUUGGCAGCUGUACCUGGUGC [SSThB NP+V+V2 #8 Same Structure]
398

Identify measured apparent KD of MS2 coat protein corresponding to CAGCAACAAUUGGAUACCAGCCAUUACAGGUAUCAUUAUAACAUGAGGAUCACCCAUGUAGGCCCUUGGCAGCCAUUGGUGUAAG [theeternabot_exclusion_MS2_Theo_B_22]
40.5
